Tested on: Plutella xylostella
assay.protocol: Plutella xylostella (diamond back moth), artificial diet
Type: in vivo
condition.summary: 120 h, application rate 200 ppm, L2 larvae, 5 days after infestation, read-out: effect in at least one of the two categories (mortality or growth inhibition)
recorded.metric: percent effect (mortality or growth inhibition) at 200 ppm

Please review the entries below; each comes with its answer.
{"columns": ["compound", "observed.result"],
 "data": [
  ["CS(=O)(=O)N1CC(NC(=O)c2ccc(C3=NOC(c4cc(Cl)cc(Cl)c4)(C(F)(F)F)C3)cc2Br)CO1 (stereo not drawn)", "≥ 80%"],
  ["CS(=O)(=O)N1CC(NC(=O)c2ccc(C3=NOC(c4cc(Cl)cc(Cl)c4)(C(F)(F)F)C3)c3ccccc23)CO1 (stereo not drawn)", "≥ 80%"]
]}

# input for lookup
Requested read-out: percent effect (mortality or growth inhibition) at 200 ppm. Entry: `Cc1cc(C2=NO[C@@](c3cc(Cl)c(F)c(Cl)c3)(C(F)(F)F)C2)ccc1C(=O)N[C@H]1CON(S(=O)(=O)N2CCC2)C1`
≥ 80%

###

# percent effect (mortality or growth inhibition) at 200 ppm values compiled below
Test system: Plutella xylostella
assay.protocol: Plutella xylostella (diamond back moth), artificial diet
Assay type: in vivo
condition.summary: 120 h, application rate 200 ppm, L2 larvae, 5 days after infestation, read-out: effect in at least one of the two categories (mortality or growth inhibition)

{"columns": ["molecule", "tested.target", "observed.result"],
 "data": [
  ["COC(=O)CS(=O)(=O)N1C[C@@H](NC(=O)c2ccc(C3=NO[C@](c4cc(Cl)cc(Cl)c4)(C(F)(F)F)C3)cc2C)CO1 [Compound A176]", "Plutella xylostella", "≥ 80%"]
]}

Requested read-out: percent effect (mortality or growth inhibition) at 200 ppm. Entry: O=C(N[C@H]1CON(S(=O)(=O)NC2CC2)C1)c1ccc(C2=NO[C@@](c3cc(Cl)cc(Cl)c3)(C(F)(F)F)C2)cc1Cl [Compound A154]
≥ 80%

Next molecule: Cc1cc(C2=NO[C@](c3cc(Cl)c(F)c(Cl)c3)(C(F)(F)F)C2)ccc1C(=O)N[C@H]1CON(S(=O)(=O)CF)C1 [Compound A211]
≥ 80%

src = patent US10588317B2
